Measured pKd by item
Target: T1, cyno TfR ECD (cynomolgus)
T1 chain: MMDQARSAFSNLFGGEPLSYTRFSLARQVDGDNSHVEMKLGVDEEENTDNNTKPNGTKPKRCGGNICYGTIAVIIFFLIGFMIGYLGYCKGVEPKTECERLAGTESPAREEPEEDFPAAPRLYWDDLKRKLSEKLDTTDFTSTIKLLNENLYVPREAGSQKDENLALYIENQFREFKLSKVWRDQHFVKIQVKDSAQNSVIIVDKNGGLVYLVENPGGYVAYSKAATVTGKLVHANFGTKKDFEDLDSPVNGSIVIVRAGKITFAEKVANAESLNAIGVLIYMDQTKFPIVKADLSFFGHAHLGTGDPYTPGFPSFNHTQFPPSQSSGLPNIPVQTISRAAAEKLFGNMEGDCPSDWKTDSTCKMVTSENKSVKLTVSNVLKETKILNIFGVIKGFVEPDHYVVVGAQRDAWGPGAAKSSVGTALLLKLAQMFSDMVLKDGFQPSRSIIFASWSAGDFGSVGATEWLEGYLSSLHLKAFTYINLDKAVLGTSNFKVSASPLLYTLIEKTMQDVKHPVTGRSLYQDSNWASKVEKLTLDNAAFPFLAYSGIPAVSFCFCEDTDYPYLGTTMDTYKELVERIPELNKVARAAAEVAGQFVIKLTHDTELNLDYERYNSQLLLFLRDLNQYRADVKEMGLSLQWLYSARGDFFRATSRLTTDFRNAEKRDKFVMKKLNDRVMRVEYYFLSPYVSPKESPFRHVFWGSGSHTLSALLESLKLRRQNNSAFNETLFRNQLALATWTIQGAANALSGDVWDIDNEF
Test: SPR
pKd: −log10 of the molar value.
measuredEndpoint: pKd

>  <binder>
Hu15G11.v5 Fab (antibody, V domains shown) VH: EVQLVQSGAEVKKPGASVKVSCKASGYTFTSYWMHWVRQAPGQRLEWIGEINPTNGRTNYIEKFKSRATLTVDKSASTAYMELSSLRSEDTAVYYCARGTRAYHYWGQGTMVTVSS VL: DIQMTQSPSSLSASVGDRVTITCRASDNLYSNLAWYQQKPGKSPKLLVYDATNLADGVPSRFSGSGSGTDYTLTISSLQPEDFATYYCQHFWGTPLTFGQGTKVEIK

>  <measuredEndpoint>
pKd

>  <number>
7.81

$$$$
>  <binder>
Hu7G7.v1 Fab (antibody, V domains shown) VH: EVQLVQSGAEVKKPGASVKVSCKASGYTFTSYWMHWVRQAPGQGLEWIGNIYPGSGSTKYDERFKSRVTITVDTSTSTAYLELSSLRSEDTAVYYCTRGGYDSRAWFAYWGQGTLVTVSS VL: DIVMTQSPDSLAVSLGERATINCRARQSVSTSSYSFMHWYQQPAGQPPKLLIKYASIQESGVPDRFSGSGSGTDFTLTISSLQAEDVAVYYCQHTWEIPFTFGQGTKVEIK

>  <measuredEndpoint>
pKd

>  <number>
6.73

$$$$
>  <binder>
Mu16F6 Fab (antibody, V domains shown) VH: DVQLQESGPGLVKPSQSLSLTCTVTGNSITSEYAWNWIRQFPGNKLEWMGYISYSGTTSYNPSLKSRISITRDTSKNQLFLQLNSVTTEDTATYFCARYGYGNPATRYFDVWGAGTTVTVSS VL: DVQITQSPSYLTASPGETITINCRASKSISKYLAWYQEKPGKTNKLLIYSGSTLQSGIPSRFSGSGSGTDFTLTISNLEPEDFAMYYCQQHNEYPWTFGGGTKLEIK

>  <measuredEndpoint>
pKd

>  <number>
7.57

$$$$
>  <binder>
Hu16F6.v4 Fab (antibody, V domains shown) VH: EVQLVESGPGLVKPSETLSLTCTVSGNSITSEYAWNWIRQPPGKGLEWIGYISYSGTTSYNPSLKSRVTISRDTSKNQLSLKLSSVTAADTAVYYCARYGYGNPATRYFDVWGQGTLVTVSS VL: DIQMTQSPSSLSASVGDRVTITCRASKSISKYLAWYQQKPGKTNKLLLYSGSTLQSGVPSRFSGSGSGTDYTLTISSLQPEDFATYYCQQHNEYPWTFGQGTKVEIK

>  <measuredEndpoint>
pKd

>  <number>
7.61

$$$$
